# experimental.protocol: Ratio of AUC in Brain to AUC in plasma
# Type: ADME, cell-free
# conditions.used: brain and plasma; read-out: Ratio AUC
Each item that follows carries a reported Kp.

CC(C)(C)Oc1cc(CCC(C)(C)N2Cc3ccc(S(C)(=O)=O)cc3C2)ccc1O 2.51

Let's switch to this compound now.
# input compound: "CC(C)Oc1cc(CCC(C)(C)N2Cc3cccc(F)c3C2)ccc1O" ; wanted: its Kp 5.64
